System: 463943-066-T-J2-PDC complex spheroid growth
PROTOCOL_DESCRIPTION: Anticancer human tumor 463943-066-T-J2-PDC patient-derived colon adenocarcinoma cell line growth inhibition [Asc]
CONDITION_DETAILS: curve of first compound; second compound 0.0949 µM
pIC50: −log10 of the molar value.
ENDPOINT: pIC50

COMPOUND	RESULT_VALUE
CNC(C)C(=O)NC1CN(S(=O)(=O)c2cccc(S(=O)(=O)N3CCC4CCC(C(=O)NC(c5ccccc5)c5ccccc5)N4C(=O)C(NC(=O)C(C)NC)C3)c2)CCC2CCC(C(=O)NC(c3ccccc3)c3ccccc3)N2C1=O (centres undefined) + CCN1C(C(=O)NC23CCC(C(=O)O)(CC2)CC3)C(c2cccc(Cl)c2F)C2(C(=O)Nc3cc(Cl)ccc32)C12CCCCC2	< 6.00
NC(=O)C(=Cn1cnc(-c2cc(C(F)(F)F)cc(C(F)(F)F)c2)n1)c1cncnc1 + CCN1C(C(=O)NC23CCC(C(=O)O)(CC2)CC3)C(c2cccc(Cl)c2F)C2(C(=O)Nc3cc(Cl)ccc32)C12CCCCC2	< 6.52
Cn1ncnc1[C@H]1c2n[nH]c(=O)c3cc(F)cc(c23)N[C@@H]1c1ccc(F)cc1 + CCN1C(C(=O)NC23CCC(C(=O)O)(CC2)CC3)C(c2cccc(Cl)c2F)C2(C(=O)Nc3cc(Cl)ccc32)C12CCCCC2	< 7.00
O=C(c1ccc(F)c(F)c1Nc1ccc(I)cc1F)N1CC(O)([C@@H]2CCCCN2)C1 + CCN1C(C(=O)NC23CCC(C(=O)O)(CC2)CC3)C(c2cccc(Cl)c2F)C2(C(=O)Nc3cc(Cl)ccc32)C12CCCCC2	6.93

----------
Tested on: 463943-066-T-J2-PDC complex spheroid growth
PROTOCOL_DESCRIPTION: Anticancer human tumor 463943-066-T-J2-PDC cell line growth inhibition [Asc];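 note: compound exposure lasted 7 days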;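 for viability, T/C: 100% = DMSO vehicle control wells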
CONDITION_DETAILS: second compound 0.1 µM; first compound 3.16 µM; stronger effect = lower value
Listing of recorded viability, T/C by entry.

MOLECULE	viability, T/C [%]
C=CC(=O)N1CCN(c2nc(=O)n(-c3c(C)ccnc3C(C)C)c3nc(-c4c(O)cccc4F)c(F)cc23)C(C)C1 (stereo not drawn) + Cc1c(S(C)(=O)=O)c(-c2cc(F)cc(N3CCN(c4ccc(NS(=O)(=O)c5ccc(NC(CCN6CCC(C(=O)OCCCP(=O)(O)O)CC6)CSc6ccccc6)c(S(=O)(=O)C(F)(F)F)c5)cc4)CC3)c2)c(-c2ccc(Cl)cc2)n1C(C)C	91.9
C#Cc1c(F)ccc2cc(O)cc(-c3ncc4c(N5CC6CCC(C5)N6)nc(OCC56CCCN5CC(F)C6)nc4c3F)c12 (stereo not drawn) + CNC(C)C(=O)NC1CN(S(=O)(=O)c2cccc(S(=O)(=O)N3CCC4CCC(C(=O)NC(c5ccccc5)c5ccccc5)N4C(=O)C(NC(=O)C(C)NC)C3)c2)CCC2CCC(C(=O)NC(c3ccccc3)c3ccccc3)N2C1=O	101
C=C(F)C(=O)N1CCN(c2nc(OCC3CCCN3C)nc3c2CCN(c2cccc4cccc(Cl)c24)C3)CC1CC#N (stereo not drawn) + Cc1c(S(C)(=O)=O)c(-c2cc(F)cc(N3CCN(c4ccc(NS(=O)(=O)c5ccc(NC(CCN6CCC(C(=O)OCCCP(=O)(O)O)CC6)CSc6ccccc6)c(S(=O)(=O)C(F)(F)F)c5)cc4)CC3)c2)c(-c2ccc(Cl)cc2)n1C(C)C	79.5

----------
Tested on: 463943-066-T-J2-PDC complex spheroid growth
PROTOCOL_DESCRIPTION: Anticancer human tumor 463943-066-T-J2-PDC cell line growth inhibition [Asc];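 note: compound exposure lasted 7 days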;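 for viability, T/C: 100% = DMSO vehicle control wells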
CONDITION_DETAILS: second compound 3 µM; first compound 1 µM; stronger effect = lower value

COMPOUND	viability, T/C / %
O=C(c1cc(Cc2n[nH]c(=O)c3ccccc23)ccc1F)N1CCN(C(=O)C2CC2)CC1 + CCN1C(C(=O)NC23CCC(C(=O)O)(CC2)CC3)C(c2cccc(Cl)c2F)C2(C(=O)Nc3cc(Cl)ccc32)C12CCCCC2	71.7
CCN1CCN(Cc2ccc(Nc3ncc(F)c(-c4cc(F)c5nc(C)n(C(C)C)c5c4)n3)nc2)CC1 + CCN1C(C(=O)NC23CCC(C(=O)O)(CC2)CC3)C(c2cccc(Cl)c2F)C2(C(=O)Nc3cc(Cl)ccc32)C12CCCCC2	103
C=C(F)C(=O)N1CCN(c2nc(OCC3CCCN3C)nc3c2CCN(c2cccc4cccc(Cl)c24)C3)CC1CC#N (centres undefined) + CCN1C(C(=O)NC23CCC(C(=O)O)(CC2)CC3)C(c2cccc(Cl)c2F)C2(C(=O)Nc3cc(Cl)ccc32)C12CCCCC2	78.9
C#Cc1c(F)ccc2cc(O)cc(-c3ncc4c(N5CC6CCC(C5)N6)nc(OCC56CCCN5CC(F)C6)nc4c3F)c12 (centres undefined) + CCN1C(C(=O)NC23CCC(C(=O)O)(CC2)CC3)C(c2cccc(Cl)c2F)C2(C(=O)Nc3cc(Cl)ccc32)C12CCCCC2	73.3

----------
Listing of recorded viability, T/C by entry.
Test system: 463943-066-T-J2-PDC complex spheroid growth
PROTOCOL_DESCRIPTION: Anticancer human tumor 463943-066-T-J2-PDC cell line growth inhibition [Asc];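 note: compound exposure lasted 7 days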;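 for viability, T/C: 100% = DMSO vehicle control wells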
CONDITION_DETAILS: second compound 0.316 µM; first compound 0.03 µM; stronger effect = lower value

COMPOUND	viability, T/C / %
NC(=O)C(=Cn1cnc(-c2cc(C(F)(F)F)cc(C(F)(F)F)c2)n1)c1cncnc1 + Cc1c(S(C)(=O)=O)c(-c2cc(F)cc(N3CCN(c4ccc(NS(=O)(=O)c5ccc(NC(CCN6CCC(C(=O)OCCCP(=O)(O)O)CC6)CSc6ccccc6)c(S(=O)(=O)C(F)(F)F)c5)cc4)CC3)c2)c(-c2ccc(Cl)cc2)n1C(C)C	78.8
CCN1C(C(=O)NC23CCC(C(=O)O)(CC2)CC3)C(c2cccc(Cl)c2F)C2(C(=O)Nc3cc(Cl)ccc32)C12CCCCC2 (stereo not drawn) + Cc1c(S(C)(=O)=O)c(-c2cc(F)cc(N3CCN(c4ccc(NS(=O)(=O)c5ccc(NC(CCN6CCC(C(=O)OCCCP(=O)(O)O)CC6)CSc6ccccc6)c(S(=O)(=O)C(F)(F)F)c5)cc4)CC3)c2)c(-c2ccc(Cl)cc2)n1C(C)C	92.2
Cc1nc(N2CCC3(CC2)COC(C)C3N)c(CO)nc1Sc1ccnc(N)c1Cl (stereo not drawn) + CNC(C)C(=O)NC1CN(S(=O)(=O)c2cccc(S(=O)(=O)N3CCC4CCC(C(=O)NC(c5ccccc5)c5ccccc5)N4C(=O)C(NC(=O)C(C)NC)C3)c2)CCC2CCC(C(=O)NC(c3ccccc3)c3ccccc3)N2C1=O	92.5

----------
System: 463943-066-T-J2-PDC complex spheroid growth
PROTOCOL_DESCRIPTION: Anticancer human tumor 463943-066-T-J2-PDC cell line growth inhibition [Asc];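 note: compound exposure lasted 7 days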
CONDITION_DETAILS: compound alone; run of 11/15/2022

MOLECULE	IC50
CNC(C)C(=O)NC1CN(S(=O)(=O)c2cccc(S(=O)(=O)N3CCC4CCC(C(=O)NC(c5ccccc5)c5ccccc5)N4C(=O)C(NC(=O)C(C)NC)C3)c2)CCC2CCC(C(=O)NC(c3ccccc3)c3ccccc3)N2C1=O (stereo unspecified)	> 1000 nM

----------
Test system: 463943-066-T-J2-PDC complex spheroid growth
PROTOCOL_DESCRIPTION: Anticancer human tumor 463943-066-T-J2-PDC cell line growth inhibition [Asc];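 note: compound exposure lasted 7 days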;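 for viability, T/C: 100% = DMSO vehicle control wells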
CONDITION_DETAILS: second compound 0.00316 µM; first compound 1 µM; stronger effect = lower value
ENDPOINT: viability, T/C (%)

COMPOUND	ENDPOINT	RESULT_VALUE
CCN1CCN(Cc2ccc(Nc3ncc(F)c(-c4cc(F)c5nc(C)n(C(C)C)c5c4)n3)nc2)CC1 + CNC(C)C(=O)NC1CN(S(=O)(=O)c2cccc(S(=O)(=O)N3CCC4CCC(C(=O)NC(c5ccccc5)c5ccccc5)N4C(=O)C(NC(=O)C(C)NC)C3)c2)CCC2CCC(C(=O)NC(c3ccccc3)c3ccccc3)N2C1=O	viability, T/C	120
O=C(c1ccc(F)c(F)c1Nc1ccc(I)cc1F)N1CC(O)([C@@H]2CCCCN2)C1 + CNC(C)C(=O)NC1CN(S(=O)(=O)c2cccc(S(=O)(=O)N3CCC4CCC(C(=O)NC(c5ccccc5)c5ccccc5)N4C(=O)C(NC(=O)C(C)NC)C3)c2)CCC2CCC(C(=O)NC(c3ccccc3)c3ccccc3)N2C1=O	viability, T/C	20.8
C#Cc1c(F)ccc2cc(O)cc(-c3ncc4c(N5CC6CCC(C5)N6)nc(OCC56CCCN5CC(F)C6)nc4c3F)c12 (centres undefined) + CNC(C)C(=O)NC1CN(S(=O)(=O)c2cccc(S(=O)(=O)N3CCC4CCC(C(=O)NC(c5ccccc5)c5ccccc5)N4C(=O)C(NC(=O)C(C)NC)C3)c2)CCC2CCC(C(=O)NC(c3ccccc3)c3ccccc3)N2C1=O	viability, T/C	123
O=C(c1cc(Cc2n[nH]c(=O)c3ccccc23)ccc1F)N1CCN(C(=O)C2CC2)CC1 + CNC(C)C(=O)NC1CN(S(=O)(=O)c2cccc(S(=O)(=O)N3CCC4CCC(C(=O)NC(c5ccccc5)c5ccccc5)N4C(=O)C(NC(=O)C(C)NC)C3)c2)CCC2CCC(C(=O)NC(c3ccccc3)c3ccccc3)N2C1=O	viability, T/C	103
